study-system: human recombinant CYP1A1 (rCYP1A1) (Homo sapiens)
procedure-details: CYP1A1 activity assay repeated at six CEC concentrations (Ki, α, mode of inhibition)
assay-conditions: Ki, CEC 1.56-50.0 µM
measured-metric: Ki (µM)
Answers are plain numbers, in µM.

Incoming: Need Ki, item CC(=O)O[C@]1(C(C)=O)CC[C@H]2[C@@H]3C=C(Cl)C4=CC(=O)[C@@H]5C[C@@H]5[C@]4(C)[C@H]3CC[C@@]21C [Cyproterone acetate, reference compound]
Outgoing: 8.8

###

study-system: human recombinant CYP1A1 (rCYP1A1) (Homo sapiens)
procedure-details: CYP1A1 activity assay: inhibition of CEC metabolism (IC50)
assay-conditions: CYP1A1 IC50 (range of colour key, Fig. 5a)
pIC50: −log10 of the molar value.
measured-metric: pIC50

Sample records with pIC50:
{"compound": "C[C@]12CC[C@H](O)CC1=CC[C@@H]1[C@@H]2CC[C@]2(C)C(=O)CC[C@@H]12 [DHEA, dehydroepiandrosterone]", "study-system": "human recombinant CYP1A1 (rCYP1A1) (Homo sapiens)", "test-value": "3.00 to 4.00"}
{"compound": "CC(=O)O[C@]1(C(C)=O)CC[C@H]2[C@@H]3C=C(Cl)C4=CC(=O)[C@@H]5C[C@@H]5[C@]4(C)[C@H]3CC[C@@]21C [Cyproterone acetate, reference compound]", "study-system": "human recombinant CYP1A1 (rCYP1A1) (Homo sapiens)", "test-value": "5.00 to 6.00"}
{"compound": "CCOC(=O)c1ccccc1C(=O)OCC [Diethyl phthalate]", "study-system": "human recombinant CYP1A1 (rCYP1A1) (Homo sapiens)", "test-value": "4.00 to 5.00"}
{"compound": "CCCCOC(=O)c1ccccc1C(=O)OCCCC [Dibutyl phthalate]", "study-system": "human recombinant CYP1A1 (rCYP1A1) (Homo sapiens)", "test-value": "4.00 to 5.00"}

Dear colleague, could you send me pIC50 for each of the items below? Thanks.
1. CC(C)(C#N)c1cc(Cn2cncn2)cc(C(C)(C)C#N)c1 [Anastrozole, reference compound]
2. C[C@]12CC[C@@H]3c4ccc(O)cc4CC[C@H]3[C@@H]1CC[C@@H]2O [Estradiol, reference compound]
3. CCCOC(=O)c1ccc(O)cc1

Outgoing:
1: 3.00 to 4.00; 2: 4.00 to 5.00; 3: 4.00 to 5.00

Dear colleague, could you send me pIC50 for each of the items below? Thanks.
1. O=P1(N(CCCl)CCCl)NCCCO1 (stereo not shown) [Cyclophosphamide, reference compound]
2. C=CC(=C)CCC=C(C)C
3. CC(=O)[C@H]1CC[C@H]2[C@@H]3CCC4=CC(=O)CC[C@]4(C)[C@H]3CC[C@]12C [Progesterone, reference compound]
4. CC(O)(CS(=O)(=O)c1ccc(F)cc1)C(=O)Nc1ccc(C#N)c(C(F)(F)F)c1 (stereo not shown) [Bicalutamide, reference compound]
5. C[C@]12CC[C@@H]3c4ccc(O)cc4CC[C@H]3[C@@H]1C[C@@H](O)[C@@H]2O
6. CC(C)(c1ccc(O)cc1)c1ccc(O)cc1

Outgoing:
1. ≤ 3.00
2. 4.00 to 5.00
3. 4.00 to 5.00
4. 4.00 to 5.00
5. ≤ 3.00
6. 5.00 to 6.00

###

study-system: human recombinant CYP1A1 (rCYP1A1) (Homo sapiens)
Sequence (P04798 1-512): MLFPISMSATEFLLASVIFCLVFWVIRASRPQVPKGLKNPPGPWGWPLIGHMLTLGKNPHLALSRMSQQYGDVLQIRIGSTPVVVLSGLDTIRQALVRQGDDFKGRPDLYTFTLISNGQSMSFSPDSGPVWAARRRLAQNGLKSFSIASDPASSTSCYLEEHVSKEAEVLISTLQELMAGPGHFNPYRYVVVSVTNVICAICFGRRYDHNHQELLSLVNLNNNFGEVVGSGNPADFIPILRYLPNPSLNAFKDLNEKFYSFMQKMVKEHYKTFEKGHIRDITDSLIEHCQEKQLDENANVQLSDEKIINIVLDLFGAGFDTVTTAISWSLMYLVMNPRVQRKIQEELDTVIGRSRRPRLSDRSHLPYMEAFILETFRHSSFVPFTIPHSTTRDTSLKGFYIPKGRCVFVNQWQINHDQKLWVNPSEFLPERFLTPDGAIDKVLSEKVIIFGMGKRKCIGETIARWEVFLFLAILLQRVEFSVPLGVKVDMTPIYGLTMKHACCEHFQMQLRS

{"molecule": "C[C@H]1CCCC(=O)CCC/C=C/c2cc(O)cc(O)c2C(=O)O1", "MOI (mode of inhibition)": "Mixed"}
{"molecule": "CCCCOC(=O)c1ccccc1C(=O)OCCCC [Dibutyl phthalate]", "MOI (mode of inhibition)": "Competitive"}
{"molecule": "CC(=O)O[C@]1(C(C)=O)CC[C@H]2[C@@H]3C=C(Cl)C4=CC(=O)[C@@H]5C[C@@H]5[C@]4(C)[C@H]3CC[C@@]21C [Cyproterone acetate, reference compound]", "MOI (mode of inhibition)": "Competitive"}

###

study-system: human recombinant CYP1A1 (rCYP1A1) (Homo sapiens, UniProt P04798)
procedure-details: CYP1A1 activity assay: inhibition of CEC metabolism (IC50)
assay-conditions: IC50, 5 µM CEC; maximum tested concentration 200 µM (ketoconazole 20 µM); ∞ = the best fitted model was the constant model
measured-metric: IC50

Incoming: Need IC50, item C[C@]12CC[C@@H]3c4ccc(O)cc4CC[C@H]3[C@@H]1[C@@H](O)[C@@H](O)[C@@H]2O [Estetrol]
Outgoing: > 200 µM

###

study-system: human recombinant CYP1A1 (rCYP1A1) (Homo sapiens)
procedure-details: CYP1A1 activity assay: inhibition of CEC metabolism (IC50)
assay-conditions: CYP1A1 IC50 (range of colour key, Fig. 5a), 5 µM CEC; range assigned by colour of the point
measured-metric: IC50

Incoming: Need IC50, item C[C@]12CC[C@@H]3c4ccc(O)cc4CC[C@H]3[C@@H]1[C@@H](O)[C@@H](O)[C@@H]2O [Estetrol]
Outgoing: 100 to 1000 µM

###

study-system: human recombinant CYP1A1 (rCYP1A1) (Homo sapiens, UniProt P04798)
Sequence (P04798 1-512): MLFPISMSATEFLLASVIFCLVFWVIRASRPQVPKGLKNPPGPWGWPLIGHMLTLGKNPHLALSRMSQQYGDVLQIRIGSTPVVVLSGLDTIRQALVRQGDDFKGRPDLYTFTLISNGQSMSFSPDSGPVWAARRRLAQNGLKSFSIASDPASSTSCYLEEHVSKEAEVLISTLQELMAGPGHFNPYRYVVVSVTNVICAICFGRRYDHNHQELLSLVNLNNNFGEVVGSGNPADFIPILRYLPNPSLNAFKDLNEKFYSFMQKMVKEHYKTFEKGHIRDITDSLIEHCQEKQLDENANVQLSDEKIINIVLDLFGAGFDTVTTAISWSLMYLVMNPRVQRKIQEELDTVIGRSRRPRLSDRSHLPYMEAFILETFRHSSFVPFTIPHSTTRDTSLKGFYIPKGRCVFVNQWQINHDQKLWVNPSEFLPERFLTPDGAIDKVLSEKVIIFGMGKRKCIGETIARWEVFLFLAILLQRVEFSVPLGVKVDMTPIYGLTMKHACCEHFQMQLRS
procedure-details: CYP1A1 activity assay repeated at six CEC concentrations (Ki, α, mode of inhibition)
assay-conditions: CYP1A1 Ki (range of colour key, Fig. 5b), range assigned by colour of the point
pKi: −log10 of the molar value.
measured-metric: pKi

Incoming: Need pKi, item CC(=O)O[C@]1(C(C)=O)CC[C@H]2[C@@H]3C=C(Cl)C4=CC(=O)[C@@H]5C[C@@H]5[C@]4(C)[C@H]3CC[C@@]21C [Cyproterone acetate, reference compound]
Outgoing: 5.00 to 6.00

###

study-system: human recombinant CYP1A1 (rCYP1A1) (Homo sapiens, UniProt P04798)
procedure-details: CYP1A1 activity assay repeated at six CEC concentrations (Ki, α, mode of inhibition)
assay-conditions: CYP1A1 Ki (range of colour key, Fig. 5b)
pKi: −log10 of the molar value.
measured-metric: pKi

{"molecule": "CCCOC(=O)c1ccc(O)cc1 [Propyl paraben]", "pKi": "4.70 to 4.82"}
{"molecule": "C=CC(=C)CCC=C(C)C [β-Myrcene]", "pKi": "4.82 to 5.00"}
{"molecule": "CCCCOC(=O)c1ccccc1C(=O)OCCCC [Dibutyl phthalate]", "pKi": "5.00 to 6.00"}
{"molecule": "CC(=O)[C@H]1CC[C@H]2[C@@H]3CCC4=CC(=O)CC[C@]4(C)[C@H]3CC[C@]12C [Progesterone, reference compound]", "pKi": "4.70 to 4.82"}

Dear colleague, could you send me pKi for each of the items below? Thanks.
1. CCOC(=O)c1ccccc1C(=O)OCC [Diethyl phthalate]
2. C[C@]12CC[C@@H]3c4ccc(O)cc4CC[C@H]3[C@@H]1CC[C@@H]2O [Estradiol, reference compound]
3. CC(O)(CS(=O)(=O)c1ccc(F)cc1)C(=O)Nc1ccc(C#N)c(C(F)(F)F)c1 (stereo not shown) [Bicalutamide, reference compound]

Outgoing:
1. 4.82 to 5.00
2. 4.82 to 5.00
3. 5.00 to 6.00
